# SYSTEM_NAME: Cholinesterase (Equus caballus, UniProt P81908)
# Sequence (P81908 whole entry): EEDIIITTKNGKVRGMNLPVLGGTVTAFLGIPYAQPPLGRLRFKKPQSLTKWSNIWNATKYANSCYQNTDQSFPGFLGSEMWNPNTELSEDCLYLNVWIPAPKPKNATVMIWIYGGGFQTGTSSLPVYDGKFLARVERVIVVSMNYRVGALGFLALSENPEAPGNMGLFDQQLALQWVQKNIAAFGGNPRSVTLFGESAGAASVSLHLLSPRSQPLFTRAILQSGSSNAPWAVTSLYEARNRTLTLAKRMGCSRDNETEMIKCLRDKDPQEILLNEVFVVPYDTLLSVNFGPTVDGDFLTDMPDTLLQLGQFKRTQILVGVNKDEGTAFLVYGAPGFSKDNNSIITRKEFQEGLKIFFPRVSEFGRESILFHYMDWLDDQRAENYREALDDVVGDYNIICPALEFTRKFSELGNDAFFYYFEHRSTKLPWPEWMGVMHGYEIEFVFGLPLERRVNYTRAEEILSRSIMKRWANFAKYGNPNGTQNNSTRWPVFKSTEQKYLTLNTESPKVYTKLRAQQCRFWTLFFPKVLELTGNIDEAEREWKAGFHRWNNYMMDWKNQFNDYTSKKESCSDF
# RUN_DESCRIPTION: Inhibition of horse serum BuChE using butyrylthiocholine iodide as substrate measured for 3 mins by Ellman's method
pIC50: −log10 of the molar value.
Parameter: pIC50. Scope: all listed entries.
QUANTITY_MEASURED: pIC50

Cc1ccccc1NC(=O)CN(Cc1ccc2ccccc2c1)Cc1ccco1 : 5.91
O=C(CN(Cc1ccccc1)Cc1ccco1)Nc1cccc(F)c1 : 4.50
O=C(CN(Cc1ccccc1)Cc1ccco1)Nc1cccc(Br)c1 : 5.21
CCN(CC)CCN(CC(=O)Nc1ccccc1C)Cc1ccc2ccccc2c1 : 5.84
O=C(CN(Cc1ccccc1)Cc1ccco1)Nc1ccc(C(F)(F)F)cc1 : 5.17
O=C(CN(Cc1ccc2ccccc2c1)Cc1ccco1)Nc1ccccc1 : 5.65
O=C(CN(Cc1ccccc1)Cc1ccco1)Nc1ccccc1F : 5.05
O=C(CN(Cc1ccccc1)Cc1ccco1)Nc1ccccc1Cl : 5.00
COc1ccccc1NC(=O)CN(Cc1ccccc1)Cc1ccco1 : 4.58
Cc1cccc(NC(=O)CN(Cc2ccccc2)Cc2ccco2)c1 : 5.13
N#Cc1ccccc1NC(=O)CN(Cc1ccccc1)Cc1ccco1 : 3.93
Cc1cccc(NC(=O)CN(Cc2ccco2)Cc2c[nH]c3ccccc23)c1C : 4.96
O=C(CN(Cc1ccccc1)Cc1ccco1)Nc1ccc2ccccc2c1 : 5.01
Cc1ccccc1NC(=O)CN(Cc1ccco1)Cc1c[nH]c2ccccc12 : 5.36
O=C(CN(Cc1ccccc1)Cc1ccco1)Nc1ccc2c(c1)OCO2 : 5.08
Cc1ccccc1NC(=O)CN(Cc1ccc2ccccc2c1)CC(C)C : 6.66
O=C(CN(Cc1ccccc1)Cc1ccco1)Nc1cccc(Cl)c1 : 4.32

###

# SYSTEM_NAME: Cholinesterase (Equus caballus, UniProt P81908)
# RUN_DESCRIPTION: Inhibition of horse serum BuChE using butyrylthiocholine iodide as substrate measured for 3 mins by Ellman's method
pIC50: −log10 of the molar value.
Parameter: pIC50. Scope: all listed entries.
QUANTITY_MEASURED: pIC50

Cc1cccc(NC(=O)CN(Cc2ccccc2)Cc2ccco2)c1C : 5.57
CCCN(CC(=O)Nc1ccccc1C)Cc1ccc2ccccc2c1 : 6.72
c1ccc(CCCN(Cc2ccc3ccccc3c2)Cc2ccco2)cc1 : 4.80
CCCCN(CCCc1ccccc1)Cc1ccc2ccccc2c1 : 6.64
